Provenance of the data: patent US10030027B2

Reported pKi values for the following compounds.
test.system: human recombinant sGC enzyme (Homo sapiens (Human), UniProt Q02108+Q02153)
method.description: Size Exclusion Chromatography (SEC) competition binding assay using [3H] Ex-77B as the radioligand
condition.notes: [3H] Ex-77B radioligand, 24 hours at 37° C.
pKi here: minus log base 10 of the concentration, concentration in moles per litre.

compound="CC1CCC(Cn2nc(-c3nc(N)c4c(n3)NC(=O)[C@@]4(C)c3nc(CC(C)(C)C(=O)O)cs3)c3ccc(F)cc32)CC1 (single isomer, unassigned) [Example 136AA]" test_system="human recombinant sGC enzyme (Homo sapiens (Human), UniProt Q02108+Q02153)" number=9.60

// recorded pKi for CC(C)(CCc1coc(C2(C)C(=O)Nc3nc(-c4nn(Cc5cccc(F)c5)c5cc(Cl)ccc45)nc(N)c32)n1)C(=O)O (stereo not drawn) [Example 177B] : 9.93

// recorded pKi for C[C@@]1(c2ccc(CCc3nn[nH]n3)cc2)C(=O)Nc2nc(-c3nn(Cc4ccccc4F)c4ccccc34)nc(N)c21 [Example 242B] : 8.95

// recorded pKi for CC(C)(Cc1csc([C@]2(C)C(=O)Nc3nc(-c4nn(Cc5ccccc5F)c5cc(F)ccc45)nc(N)c32)n1)C(=O)O [Example 62A] : 10.66

// recorded pKi for CC1(c2ccc(CCC(=O)O)cn2)C(=O)Nc2nc(-c3nn(Cc4ccccc4F)c4cc(Cl)ccc34)nc(N)c21 (stereo not drawn) [Example 129A] : 9.93

// recorded pKi for CC1(c2ccc(CCCC(=O)O)cc2)C(=O)Nc2nc(-c3nn(Cc4ccccc4F)c4ncccc34)nc(N)c21 (stereo not drawn) [Example 113B] : 10.19

###

test.system: sGC α1/β1 heterodimer (Homo sapiens (Human), UniProt Q02108+Q02153)
method.description: Cell-based sGC functional assay (cyclic GMP assay for sGC activator: CASA assay)
condition.notes: inflection point, 4P fit; CHO-K1/sGC cells; read-out: IP
Reported pEC50 values for the following compounds.
pEC50 here: minus log base 10 of the concentration, concentration in moles per litre.

Illustrative cases are given below, each with its answer.
compound="CC1(c2nc(C[C@@H](N)C(=O)O)co2)C(=O)Nc2nc(-c3nn(Cc4ccccc4F)c4cc(Cl)ccc34)nc(N)c21 (single isomer, unassigned) [Example 172A]" number=5.99
compound="CC1(N2CCC(CCC(=O)O)C2)C(=O)Nc2nc(-c3nn(Cc4ccccc4F)c4cc(Cl)ccc34)nc(N)c21 (single isomer, unassigned) [Example 261C]" number=6.53

Reported sGC α1/β1 heterodimer (Homo sapiens (Human), UniProt Q02108+Q02153) pEC50 for item C[C@@]1(c2ccc(CCC(=O)O)cc2)C(=O)Nc2nc(-c3nn(CC4CCCC4)c4ccccc34)nc(N)c21 [Example 227B] was 7.13

###

test.system: sGC α1/β1 heterodimer (Homo sapiens (Human), UniProt Q02108+Q02153)
method.description: Cell-based sGC functional assay (cyclic GMP assay for sGC activator: CASA assay)
condition.notes: inflection point, 4P fit; CHO-K1/sGC cells; read-out: IP
Method: Cell-Based sGC Functional Assay (Cyclic GMP Assay for sGC Activator: CASA Assay) Soluble guanylate cyclase (sGC) is a heme-containing enzyme that converts GTP to secondary messenger cGMP. […] A CHO-K1 cell line stably expressing the sGC α1/β1 heterodimer was generated using a standard transfection protocol. […] The level of intracellular cGMP was determined using an HTRF-based assay kit (CisBio, 62GM2PEC), which detects the displacement of a fluorescence labeled cGMP from its specific antibody. […]
assay.readout: pEC50
pEC50 here: minus log base 10 of the concentration, concentration in moles per litre.

Illustrative cases are given below, each with its answer.
molecule="CC(C)(CCc1coc(C2(C)C(=O)Nc3nc(-c4nn(Cc5cccc(F)c5)c5cc(Cl)ccc45)nc(N)c32)n1)C(=O)O (stereo not drawn) [Example 177B]" test_system="sGC α1/β1 heterodimer (Homo sapiens (Human), UniProt Q02108+Q02153)" assay_readout=pEC50 number=6.45
molecule="CC1(c2cn(C(C)(C)C(=O)O)nn2)C(=O)Nc2nc(-c3nn(CCC(F)(F)C(F)(F)F)c4cc(Cl)ccc34)nc(N)c21 (stereo not drawn) [Example 30B]" test_system="sGC α1/β1 heterodimer (Homo sapiens (Human), UniProt Q02108+Q02153)" assay_readout=pEC50 number=6.75
molecule="CC(C)(CCc1coc(C2(C)C(=O)Nc3nc(-c4nn(Cc5ncccc5F)c5cc(Cl)ccc45)nc(N)c32)n1)C(=O)O (stereo not drawn) [Example 207B]" test_system="sGC α1/β1 heterodimer (Homo sapiens (Human), UniProt Q02108+Q02153)" assay_readout=pEC50 number=5.75
molecule="CC(C)(Cc1csc([C@]2(C)C(=O)Nc3nc(-c4nn(CC5CCCCO5)c5ncccc45)nc(N)c32)n1)C(=O)O (single isomer, unassigned) [Example 123AA]" test_system="sGC α1/β1 heterodimer (Homo sapiens (Human), UniProt Q02108+Q02153)" assay_readout=pEC50 number=6.06
molecule="CC(C)(Cc1coc(C2(C)C(=O)Nc3nc(-c4nn(CC5CCCCO5)c5ncccc45)nc(N)c32)n1)C(=O)O (single isomer, unassigned) [Example 124AA]" test_system="sGC α1/β1 heterodimer (Homo sapiens (Human), UniProt Q02108+Q02153)" assay_readout=pEC50 number=5.80

Proceed to the following item.
// recorded pEC50 for C[C@@]1(c2ccc(CCC(=O)O)cc2)C(=O)Nc2nc(-c3nn(Cc4ccccc4F)c4cc(Cl)c(O)cc34)nc(N)c21 [Example 110B] : 5.95

###

Reported EC50 values for the following compounds.
test.system: sGC α1/β1 heterodimer (Homo sapiens (Human), UniProt Q02108+Q02153)
method.description: Cell-based sGC functional assay (cyclic GMP assay for sGC activator: CASA assay)
condition.notes: inflection point, 4P fit; CHO-K1/sGC cells; read-out: IP
Numeric answer only, unit nM assumed.

Illustrative cases are given below, each with its answer.
compound="CC(C)(Cn1cc(C2(C)C(=O)Nc3nc(-c4nn(CCC(F)(F)C(F)(F)F)c5cc(Cl)ccc45)nc(N)c32)nn1)C(=O)O (stereo not drawn) [Example 31B]" test_system="sGC α1/β1 heterodimer (Homo sapiens (Human), UniProt Q02108+Q02153)" assay_readout=EC50 number=8330
compound="CC[C@@H](NC(=O)CCc1ccc([C@]2(C)C(=O)Nc3nc(-c4nn(Cc5ccccc5F)c5ncccc45)nc(N)c32)cc1)C(=O)O [Example 104B]" test_system="sGC α1/β1 heterodimer (Homo sapiens (Human), UniProt Q02108+Q02153)" assay_readout=EC50 number=1370
compound="CC1(c2cccc(CCC(=O)O)c2)C(=O)Nc2nc(-c3nn(Cc4ccccc4F)c4cc(F)ccc34)nc(N)c21 (stereo not drawn) [Example 61A]" test_system="sGC α1/β1 heterodimer (Homo sapiens (Human), UniProt Q02108+Q02153)" assay_readout=EC50 number=299

// recorded EC50 for Cc1oc(C2(C)C(=O)Nc3nc(-c4nn(Cc5ccccc5F)c5cc(Cl)ccc45)nc(N)c32)nc1CC(C)(C)C(=O)O (stereo not drawn) [Example 170B] : 655

// recorded EC50 for C[C@@]1(c2ccc(CCC(=O)O)cc2)C(=O)Nc2nc(-c3nn(CC4CCC(F)(F)CC4)c4cc(Cl)ccc34)nc(N)c21 [Example 58B] : 1130

// recorded EC50 for CC1(c2cccc(C(=O)O)n2)C(=O)Nc2nc(-c3nn(Cc4ccccc4F)c4cc(Cl)ccc34)nc(N)c21 (stereo not drawn) [Example 255A] : 1480

###

Reported Emax values for the following molecules.
test.system: sGC α1/β1 heterodimer (Homo sapiens (Human), UniProt Q02108+Q02153)
method.description: Cell-based sGC functional assay (cyclic GMP assay for sGC activator: CASA assay)
condition.notes: CHO-K1, activity expressed as percentage of compound A (standard); CHO-K1/sGC cells; read-out: % Activation
Numeric answer only, unit % assumed.

Illustrative cases are given below, each with its answer.
molecule="CC1(c2ccnc(C(=O)O)c2)C(=O)Nc2nc(-c3nn(Cc4ccccc4F)c4cc(Cl)ccc34)nc(N)c21 (centres unmarked) [Example 143B]" assay_readout=Emax number=76.1
molecule="CC(Cc1ccc(C2(C)C(=O)Nc3nc(-c4nn(CCCC(F)(F)F)c5ncccc45)nc(N)c32)cc1)C(=O)O (centres unmarked) [Example 17AB]" assay_readout=Emax number=77

Reported sGC α1/β1 heterodimer (Homo sapiens (Human), UniProt Q02108+Q02153) Emax for item C[C@@H](NC(=O)CCc1ccc([C@]2(C)C(=O)Nc3nc(-c4nn(Cc5ccccc5F)c5ncccc45)nc(N)c32)cc1)C(=O)O [Example 102B] was 100

Reported sGC α1/β1 heterodimer (Homo sapiens (Human), UniProt Q02108+Q02153) Emax for item CC1(N2CCC(CCC(=O)O)CC2)C(=O)Nc2nc(-c3nn(Cc4ccccc4F)c4cc(Cl)ccc34)nc(N)c21 (centres unmarked) [Example 262B] was 82.4

Reported sGC α1/β1 heterodimer (Homo sapiens (Human), UniProt Q02108+Q02153) Emax for item CC(C)(Cn1cc(C2(C)C(=O)Nc3nc(-c4nn(Cc5ccccc5F)c5cc(F)ccc45)nc(N)c32)cn1)C(=O)O (centres unmarked) [Example 192A] was 103

Reported sGC α1/β1 heterodimer (Homo sapiens (Human), UniProt Q02108+Q02153) Emax for item C[C@@]1(c2ccc(CCC(=O)O)cc2)C(=O)Nc2nc(-c3nn(Cc4ccccc4F)c4ccc(F)cc34)nc(N)c21 [Example 71B] was 78
